- target or test system: HRgpA-6H (Porphyromonas gingivalis) (UniProt P28784)
- procedure summary: ELISA, Fab FASEBA supernatant on coated HRgpA-6H (0.0625 ug/ml)
As shown below, each of these binders has a reported OD450nm value.
Number only, no unit.

1. KB001 parental mouse Fab VH variant S65Y (Fab, V domains shown) VH: EVQLKQSGPGLVAPSQSLSITCTVSGFSLSIYSVHWVRQPPGKGLEWLGMIWGGGSSDYNSALKYRLSISKDNSKSQVFLKMNSLQTDDTAMYYCARNGNFYAMDYWGQGTSVTVSS VL: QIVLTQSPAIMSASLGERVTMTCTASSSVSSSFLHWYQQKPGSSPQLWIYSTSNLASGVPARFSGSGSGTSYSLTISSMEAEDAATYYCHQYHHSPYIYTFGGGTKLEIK : 0.724
2. KB001 parental mouse Fab VH variant K64E (Fab, V domains shown) VH: EVQLKQSGPGLVAPSQSLSITCTVSGFSLSIYSVHWVRQPPGKGLEWLGMIWGGGSSDYNSALESRLSISKDNSKSQVFLKMNSLQTDDTAMYYCARNGNFYAMDYWGQGTSVTVSS VL: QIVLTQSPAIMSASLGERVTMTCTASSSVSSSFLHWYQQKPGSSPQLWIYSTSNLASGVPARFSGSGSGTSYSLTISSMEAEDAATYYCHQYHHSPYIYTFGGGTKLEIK : 0.789
3. KB001 parental mouse Fab VH variant K64Q (Fab, V domains shown) VH: EVQLKQSGPGLVAPSQSLSITCTVSGFSLSIYSVHWVRQPPGKGLEWLGMIWGGGSSDYNSALQSRLSISKDNSKSQVFLKMNSLQTDDTAMYYCARNGNFYAMDYWGQGTSVTVSS VL: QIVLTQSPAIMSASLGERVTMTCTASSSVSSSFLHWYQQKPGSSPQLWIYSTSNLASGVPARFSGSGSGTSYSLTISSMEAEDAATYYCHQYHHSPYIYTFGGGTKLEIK : 0.789
4. KB001 parental mouse Fab VH variant G99A (Fab, V domains shown) VH: EVQLKQSGPGLVAPSQSLSITCTVSGFSLSIYSVHWVRQPPGKGLEWLGMIWGGGSSDYNSALKSRLSISKDNSKSQVFLKMNSLQTDDTAMYYCARNANFYAMDYWGQGTSVTVSS VL: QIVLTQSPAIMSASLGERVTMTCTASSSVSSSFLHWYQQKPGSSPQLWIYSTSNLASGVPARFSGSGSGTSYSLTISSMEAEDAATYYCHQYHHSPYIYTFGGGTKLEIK : 0.74

Turning to the following binder.
For KB001 parental mouse Fab VH variant K64L (Fab, V domains shown) VH: EVQLKQSGPGLVAPSQSLSITCTVSGFSLSIYSVHWVRQPPGKGLEWLGMIWGGGSSDYNSALLSRLSISKDNSKSQVFLKMNSLQTDDTAMYYCARNGNFYAMDYWGQGTSVTVSS VL: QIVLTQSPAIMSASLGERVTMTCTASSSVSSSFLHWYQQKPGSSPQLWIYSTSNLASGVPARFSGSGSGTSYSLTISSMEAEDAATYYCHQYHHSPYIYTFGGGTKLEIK , what is its reported OD450nm?
0.664

Origin of values: patent US20230365662A1
